- Measurement Protocol: Cytotoxicity against human MIAPaCa2 cells after 4 days by PrestoBlue assay
- Experimental Context: MIA PaCa-2, 96 h
Value Kind: EC50 (nM)
Give your result in nM as a bare value.

# query: EC50 of entry C#CCOC(=O)OC[C@H]1O[C@H](n2ccc(N)nc2=O)C(F)(F)[C@@H]1O
45

====

- Measurement Protocol: Cytotoxicity against human BxPC3 cells after 5 days by PrestoBlue assay
- Format: functional, cell-based
- Experimental Context: BXPC-3, 96 h, in the assay text read “4 days” for “5 days”
The entries below come with measured pEC50 values attached.
Lab note: report pEC50 as minus log10 of the concentration in molar units, number only.

Here's what some known entries look like.
- Smiles Repr: "Nc1ccn([C@H]2O[C@H](COC(=O)OCc3ccccc3)[C@@H](O)C2(F)F)c(=O)n1"
  Result Value: 7.92
- Smiles Repr: "C=CCOC(=O)OC[C@H]1O[C@H](n2ccc(N)nc2=O)C(F)(F)[C@@H]1O"
  Result Value: 7.66
- Smiles Repr: "C#CCOC(=O)OC[C@H]1O[C@H](n2ccc(N)nc2=O)C(F)(F)[C@@H]1O"
  Result Value: 7.89
- Smiles Repr: "Nc1ccn([C@@H]2O[C@H](CO)[C@@H](O)C2(F)F)c(=O)n1"
  Result Value: 8.00

// next item, pEC50 requested
Please look up its pEC50: C#CCOC(=O)Nc1ccn([C@H]2O[C@H](CO)[C@@H](O)C2(F)F)c(=O)n1
6.63
